Test system: MDA-MB-231 breast
assay_remarks: NCI tumour cell line growth inhibition, 48 h
Give TGI for every item shown.

Take each entry in turn and give its TGI.
1. CCCCCCCCCCCCc1ccc(S(=O)(=O)O)cc1.[Cu+2]
2. O=C1N[C@H]2C(=O)c3c(Br)sc(Br)c3[C@H]2O1

["> 100 µM", "22.4 µM"]

Take each entry in turn and give its TGI.
1. CCOc1ccc(-c2nc3ccc(-c4nc5ccc(N6CCN(C)CC6)cc5[nH]4)cc3[nH]2)cc1
2. CC(=O)OC(C(=O)O)C(OC(C)=O)C(OC(C)=O)C(OC(C)=O)C(=O)O (stereo not given)
3. NC1CCN(c2nc3ccccc3c3c2CCCC3)CC1

1: 2.6 µM; 2: > 100 µM; 3: 12.8 µM

// data source = PubChem BioAssay (NCI)
